All figures here come from ChEMBL document CHEMBL1158555.

# systemName: Androgen receptor (Homo sapiens)
# Sequence (P10275 whole entry): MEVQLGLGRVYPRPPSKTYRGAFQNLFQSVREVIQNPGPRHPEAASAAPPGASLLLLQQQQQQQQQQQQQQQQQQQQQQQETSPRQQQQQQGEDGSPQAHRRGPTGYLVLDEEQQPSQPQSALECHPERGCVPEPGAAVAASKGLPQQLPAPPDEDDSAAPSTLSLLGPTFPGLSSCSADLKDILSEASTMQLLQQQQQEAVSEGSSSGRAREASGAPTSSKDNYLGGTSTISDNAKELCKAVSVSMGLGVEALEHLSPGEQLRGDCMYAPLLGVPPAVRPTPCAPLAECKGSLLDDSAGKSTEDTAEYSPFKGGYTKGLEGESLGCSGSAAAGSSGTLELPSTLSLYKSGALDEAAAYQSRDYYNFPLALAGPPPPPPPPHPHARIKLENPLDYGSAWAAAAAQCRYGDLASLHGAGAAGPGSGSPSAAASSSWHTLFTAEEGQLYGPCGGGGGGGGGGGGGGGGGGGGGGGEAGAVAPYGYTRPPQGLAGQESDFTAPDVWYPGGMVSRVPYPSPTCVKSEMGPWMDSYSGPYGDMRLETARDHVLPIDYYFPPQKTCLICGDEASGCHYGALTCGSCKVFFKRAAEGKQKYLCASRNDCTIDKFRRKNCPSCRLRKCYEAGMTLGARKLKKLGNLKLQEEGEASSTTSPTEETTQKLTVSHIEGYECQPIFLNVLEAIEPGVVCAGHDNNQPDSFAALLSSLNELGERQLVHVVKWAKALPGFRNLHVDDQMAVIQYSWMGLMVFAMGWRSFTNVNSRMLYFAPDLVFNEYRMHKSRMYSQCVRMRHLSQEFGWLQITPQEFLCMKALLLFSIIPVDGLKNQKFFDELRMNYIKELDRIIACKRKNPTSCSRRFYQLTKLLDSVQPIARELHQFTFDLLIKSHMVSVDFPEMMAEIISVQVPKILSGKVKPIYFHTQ
# testMethodNotes: Displacement of [3H]mibolerone from human AR expressed in CHO-K1 cells after 2 hrs by scintillation counting
Assign IC50 to each entry below.

[ask] Indicate the recorded IC50 value for this compound: "Cc1cc(C#N)c(C(F)(F)F)cc1N1C(=O)C(C)(C)N(CCCS(N)(=O)=O)C1=S"
[reply] > 5000 nM

[ask] Indicate the recorded IC50 value for this compound: "CC1(C)C(=O)N(c2ccc(C#N)c(C(F)(F)F)c2)C(=S)N1CCCS(=O)(=O)O"
[reply] > 1000 nM

[ask] Indicate the recorded IC50 value for this compound: "CC1(C)C(=O)N(c2ccc(C#N)c(C(F)(F)F)c2)C(=S)N1CCCCS(N)(=O)=O"
[reply] > 1000 nM

[ask] Indicate the recorded IC50 value for this compound: "CC1(C)C(=O)N(c2ccc(C#N)cc2)C(=S)N1CCCS(N)(=O)=O"
[reply] > 5000 nM
